Data origin: ChEMBL document CHEMBL1201862

# GI50 per record follows
System: Malme-3M
Test: NCI tumour cell line growth inhibition, 48 h
Calls of active or inactive are those of the source. Cut-off read from the data, not from the text of the source: active = GI50 up to about 1.1 µM and inactive = higher.

FC(F)(F)c1nc(-c2ccccc2)oc1Sc1nnc(Sc2oc(-c3ccccc3)nc2C(F)(F)F)s1: 18.1 µM (inactive)
COc1ccc(C2Oc3c(cccc3-c3c(-c4ccc(O)cc4)oc4cc(O)cc(O)c4c3=O)C(=O)C2O)cc1O (stereo not given): > 100 µM (inactive)

Please examine the following record next.
Data request, read-out GI50, for COC(=O)C(C(=O)C(=O)Nc1ccc(Br)cc1)c1nc2ccc(Cl)cc2nc1O (stereo not given)
> 100 µM (inactive)

---

Tested on: OVCAR-8
Test: NCI tumour cell line growth inhibition, 48 h
The source made the active and inactive calls. Cut-off read from the data, not from the text of the source: active = GI50 up to about 1.1 µM and inactive = higher.
Pick from 1 (yes) (active), 0 (no) (inactive) when you respond.

Cc1ccc(S(=O)(=O)Oc2nc3nc4ccccc4nc3nc2OS(=O)(=O)c2ccc(C)cc2)cc1: 0 (no)
CC(=O)OC1CC2Oc3ccc(C)cc3C(C)(O2)C1=O (stereo unspecified): 0 (no)

Recorded call for CCOP(=O)(OCC)C(N)Cc1ccc(OC)c(OC)c1 (stereo unspecified) ?
0 (no)

Recorded call for COC(=O)[C@@H]1CN(C(=O)CCc2ccccc2)C(=O)N1 ?
0 (no)

---

Test system: COLO 205
Assay: NCI tumour cell line growth inhibition, 48 h
Activity calls are given as the source filed them. No stated cut-off is given here; in the data, active = GI50 up to about 1.1 µM and inactive = higher.
value_type: GI50

Below, each entry is followed by its recorded GI50 result.
CCN(CC)c1cccc2c1/C(=N/O)CCCC2: > 100 µM (inactive)
COc1ccc2oc(=O)c(CC=C(C)C)c(O)c2c1C: > 100 µM (inactive)

Please examine the following record next.
Data request, read-out GI50, for CCOC(OCC)C(CC)[Se]c1ccccc1 (stereo not drawn)
39.8 µM (inactive)

---

System: NCI-H226
Experiment: NCI tumour cell line growth inhibition, 48 h
Calls of active or inactive are those of the source. No stated cut-off is given here; in the data, active = GI50 up to about 1.1 µM and inactive = higher.
Pick from yes (1) for active, no (0) for inactive when you respond.

Solved cases below.
NC(=S)c1cccc(C2Nc3ccccc3O2)c1 (centres undefined): no (0)
O=C1C=CC2(O[C@H](C3CCCCC3)[C@@H](C3CCCCC3)O2)C(SC(=O)c2ccccc2)C1 (some centres undefined): yes (1)
CCC(=O)Nc1ccc(/N=N/N(C)C)cc1: no (0)
CCCC(=O)NC(C(=O)OCC)(N1CCOCC1)C(F)(F)F (centres undefined): no (0)

Recorded call for O=C1/C(=C/C=C/c2ccccc2)CCC1CNc1ccc(Br)cc1 (centres undefined) ?
no (0)

Recorded call for COc1ccc(/C=C(/C#N)C(N)=O)cc1OC ?
no (0)

Recorded call for N#Cc1cc2c(cc1C#N)SCCSCCCSCCS2 ?
no (0)

Recorded call for COc1cc(C2c3cc4c(cc3OC(NN)C2C)OCO4)cc(OC)c1OC (centres undefined) ?
yes (1)

Recorded call for Nc1nc(O)c2nc(CNc3ccc(C(=O)NC(CCC(=O)O)C(=O)O)cc3)cnc2n1 (centres undefined) ?
no (0)

Recorded call for COC(=O)C1=C(C(=O)OC)N(c2ccncc2)C(c2ccco2)=CC1c1ccccc1[N+](=O)[O-] (centres undefined) ?
no (0)

Recorded call for O=C1CCC2(c3ccccc3)Nc3ccccc3N12 (centres undefined) ?
no (0)

Recorded call for NC(=O)COC(=O)c1c(Cl)nc2sccn12 ?
no (0)

Recorded call for C=CCc1cc2cccc(OC)c2oc1=O ?
no (0)

Recorded call for [O-][S+]1SC(=S)C2C=CC=CC21 (centres undefined) ?
no (0)

Recorded call for CCCCC1Cc2ccccc2-c2n1c1ccccc1[n+]2C (centres undefined) ?
no (0)

Recorded call for COc1cc(/C=C/c2ccc(Br)cc2)cc(OC)c1OC ?
no (0)

Recorded call for COc1cc(C2c3cc4c(cc3OC(N3CCNCC3)C2C)OCO4)cc(OC)c1OC (centres undefined) ?
no (0)

Recorded call for CC(=O)N1c2ccccc2C23CCN(C)CC4C(C)OCC(C4CC2=O)C13 (centres undefined) ?
no (0)

Recorded call for CC1CC2C3CCC4=CC(=O)C=CC4(C)C3(F)C(O)CC2(C)C1(O)C(=O)CO.Cc1cc(NS(=O)(=O)c2ccc(/N=N\c3cc(/N=N/c4ccc(S(=O)(=O)Nc5cc(C)nc(C)n5)cc4)c(OC(=O)C(Cl)Cl)c4cccc(NC(=O)C(Cl)Cl)c34)cc2)nc(C)n1 ?
no (0)

Recorded call for O=c1c2cc([N+](=O)[O-])ccc2[nH]n1Cc1ccccc1Cl ?
no (0)

Recorded call for Cc1cc(C)nc(/C(=N\NC(N)=O)C(=O)Nc2nc3ccc(C)cc3s2)c1 ?
no (0)
